# subject-of-test: Scn(C87S/K125A) (Homo sapiens, UniProt P80188, C107S/K145A)
# Sequence (P80188 21-198 C107S/K145A): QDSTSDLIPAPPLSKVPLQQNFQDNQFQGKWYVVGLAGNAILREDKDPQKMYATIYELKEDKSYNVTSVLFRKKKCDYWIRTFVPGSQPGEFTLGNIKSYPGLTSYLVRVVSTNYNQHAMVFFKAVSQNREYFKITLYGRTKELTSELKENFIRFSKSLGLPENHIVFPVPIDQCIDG
# test-description: FQ binding assay, Scn(C87S/K125A) mutant
# run-conditions: FQ; huScn (K125A)
quantity-kind: pKd
The meaning of pKd here: minus log10 of the concentration in molar units.

Task: Any idea what pKd came out for O=C(N[C@H]1COC(=O)[C@@H](NC(=O)c2cccc(O)c2O)COC(=O)[C@@H](NC(=O)c2cccc(O)c2O)COC1=O)c1cccc(O)c1O.[Fe] on Scn(C87S/K125A) (Homo sapiens, UniProt P80188, C107S/K145A)?
Result: 7.82
